The origin of these recorded values is patent US7460961B2.

Molecular target: T1, C-TRAF2 (residues 262 to 501 of human TRAF2) (human, UniProt Q12933 262-501)
T1 construct: range 262-501; Expressed by baculovirus; Amine-coupled to a CM5 chip in the BIAcore experiments; also called C-terminal domain of TRAF2; C-TRAF2 (residues 262-501)
T1 sequence: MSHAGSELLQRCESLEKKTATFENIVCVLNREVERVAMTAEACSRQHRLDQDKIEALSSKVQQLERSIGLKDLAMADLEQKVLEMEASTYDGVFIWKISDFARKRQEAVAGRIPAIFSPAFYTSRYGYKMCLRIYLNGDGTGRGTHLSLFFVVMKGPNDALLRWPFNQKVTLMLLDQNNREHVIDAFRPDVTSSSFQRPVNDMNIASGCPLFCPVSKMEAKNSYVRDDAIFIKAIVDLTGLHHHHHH
Assay: inhibition of the N-TRADD/C-TRAF2 interaction; competitor N-TRADD
observation_type: IC50

> print(dat)
                                     binder  obs.value
1  YPIQET (Peptide of McWhirter et al; also called CD40-pl; 6-mer peptide) [CD40-p1 peptide (YPIQET)]    ~200 µM
